src = patent US20080146576A1

Target: human prostaglandin E2 (subtype EP2) receptor (Homo sapiens)
Construct: host or cells: cells on a cell culture plate
Sequence (P43116 whole entry): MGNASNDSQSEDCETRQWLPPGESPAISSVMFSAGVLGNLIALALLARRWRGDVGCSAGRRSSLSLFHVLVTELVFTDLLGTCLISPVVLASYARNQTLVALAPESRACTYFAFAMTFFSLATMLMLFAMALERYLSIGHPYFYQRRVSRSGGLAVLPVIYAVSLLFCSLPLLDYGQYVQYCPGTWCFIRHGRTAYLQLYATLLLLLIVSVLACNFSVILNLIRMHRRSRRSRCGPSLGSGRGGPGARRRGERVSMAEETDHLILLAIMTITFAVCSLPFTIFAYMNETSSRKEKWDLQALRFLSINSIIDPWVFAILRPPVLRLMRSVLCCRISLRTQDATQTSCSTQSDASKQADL
Test: cAMP agonism assay (HTRF cAMP)
Assay type: cell-based
Settings: read-out: EC50 in the cellular agonism test
pEC50: −log10 of the molar value.
result.type: pEC50

In: Entry under review: O=C(NC1CCN(c2nncc3cc(Br)ccc23)CC1)c1cccc(Cl)c1Cl . Reported pEC50?
Out: < 4.72

---

Target: human prostaglandin E2 (subtype EP2) receptor (Homo sapiens)
Construct: host or cells: cells on a cell culture plate
Experiment: cAMP antagonism assay (HTRF cAMP, PGE2-stimulated cells)
Assay type: cell-based
Settings: read-out: IC50 in the antagonism test
result.type: pIC50
As a rule, pIC50 stands for the negative log10 of the concentration, concentration in M.

In: Entry under review: O=C(NC1CCN(c2nncc3cc(Br)ccc23)CC1)c1cccc(Cl)c1Cl . Reported pIC50?
Out: 6.70
